- measurement target: β2 adrenergic receptor (Homo sapiens, UniProt P07550)
- Sequence (P07550 whole entry): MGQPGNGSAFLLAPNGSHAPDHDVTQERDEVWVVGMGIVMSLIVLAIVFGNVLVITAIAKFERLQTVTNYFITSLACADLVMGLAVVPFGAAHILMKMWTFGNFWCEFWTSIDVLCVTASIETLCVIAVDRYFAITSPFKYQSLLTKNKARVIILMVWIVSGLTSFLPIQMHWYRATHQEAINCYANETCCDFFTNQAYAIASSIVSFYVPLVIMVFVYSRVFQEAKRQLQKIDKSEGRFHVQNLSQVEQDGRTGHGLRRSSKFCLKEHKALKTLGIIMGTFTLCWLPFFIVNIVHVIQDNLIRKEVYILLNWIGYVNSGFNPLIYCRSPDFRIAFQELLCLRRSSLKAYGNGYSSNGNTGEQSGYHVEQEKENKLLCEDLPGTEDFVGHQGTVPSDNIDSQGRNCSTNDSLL
- assay name: PDSP radioligand binding, β2
- cond: read-out: % inhibition at 10 µM; single concentration 10 µM
reported endpoint: inhibition at 10 µM (%)

1. O[C@@H]1[C@H](O)[C@@H]2C[C@@H]2[C@H]1n1cnc2c(NCc3cccc(Cl)c3)nc(C#Cc3ccc(F)c(F)c3)nc21 [Compound 6] | 0
2. O[C@@H]1[C@H](O)[C@@H]2C[C@@H]2[C@H]1n1cnc2c(NCc3cccc(Cl)c3)ncnc21 [Compound 7] | 53
3. Clc1cccc(CNc2nc(Cl)nc3[nH]cnc23)c1 [Compound 9] | 0
4. CNC(=O)[C@@]12C[C@@H]1[C@@H](n1cnc3c(NCc4cccc(Cl)c4)nc(C#Cc4ccc(F)cc4)nc31)[C@H](O)[C@@H]2O [Compound 2] | 0

###

- measurement target: 5HT2B serotonergic receptor (Homo sapiens, UniProt P41595)
- Sequence (P41595 whole entry): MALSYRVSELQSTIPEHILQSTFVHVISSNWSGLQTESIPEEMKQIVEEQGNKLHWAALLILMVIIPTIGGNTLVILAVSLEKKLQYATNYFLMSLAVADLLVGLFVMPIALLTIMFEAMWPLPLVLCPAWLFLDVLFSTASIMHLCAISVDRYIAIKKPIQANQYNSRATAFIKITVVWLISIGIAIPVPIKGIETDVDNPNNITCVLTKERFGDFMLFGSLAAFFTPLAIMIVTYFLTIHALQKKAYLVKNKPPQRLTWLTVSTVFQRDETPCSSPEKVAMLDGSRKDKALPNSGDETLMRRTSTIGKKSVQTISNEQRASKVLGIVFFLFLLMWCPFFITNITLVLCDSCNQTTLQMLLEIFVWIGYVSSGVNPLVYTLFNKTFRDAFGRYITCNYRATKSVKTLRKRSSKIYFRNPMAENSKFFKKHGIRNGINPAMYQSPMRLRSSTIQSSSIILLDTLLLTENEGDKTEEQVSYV
- assay name: PDSP radioligand binding, 5HT2B
- cond: read-out: % inhibition at 10 µM; single concentration 10 µM
Each entry below carries its reported inhibition at 10 µM.
reported endpoint: inhibition at 10 µM (%)

1) CNC(=O)[C@@]12C[C@@H]1[C@@H](n1cnc3c(NCc4cccc(Cl)c4)nc(Cl)nc31)[C@H](O)[C@@H]2O | 95
2) O[C@@H]1[C@H](O)[C@@H]2C[C@@H]2[C@H]1n1cnc2c(NCc3cccc(Cl)c3)ncnc21 | 75
3) Clc1cccc(CNc2nc(Cl)nc3[nH]cnc23)c1 | 55
4) O[C@@H]1[C@H](O)[C@@H]2C[C@@H]2[C@H]1n1cnc2c(NCc3cccc(Cl)c3)nc(C#Cc3ccc(F)c(F)c3)nc21 | 34

###

- measurement target: H1 histaminergic receptor (Homo sapiens, UniProt P35367)
- Sequence (P35367 whole entry): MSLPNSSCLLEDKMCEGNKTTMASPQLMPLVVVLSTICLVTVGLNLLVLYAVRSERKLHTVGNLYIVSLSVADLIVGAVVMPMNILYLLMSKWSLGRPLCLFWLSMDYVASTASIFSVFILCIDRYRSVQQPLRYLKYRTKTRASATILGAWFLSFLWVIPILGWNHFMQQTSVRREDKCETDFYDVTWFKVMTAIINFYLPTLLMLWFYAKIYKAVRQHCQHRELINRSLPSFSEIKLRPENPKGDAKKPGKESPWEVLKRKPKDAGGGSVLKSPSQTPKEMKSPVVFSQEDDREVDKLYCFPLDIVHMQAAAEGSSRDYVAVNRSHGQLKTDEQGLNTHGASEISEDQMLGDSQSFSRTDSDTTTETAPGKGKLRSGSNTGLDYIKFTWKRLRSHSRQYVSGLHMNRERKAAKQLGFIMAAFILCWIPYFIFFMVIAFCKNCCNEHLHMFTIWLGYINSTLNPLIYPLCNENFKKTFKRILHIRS
- assay name: PDSP radioligand binding, H1
- cond: read-out: % inhibition at 10 µM; single concentration 10 µM
Each entry below carries its reported inhibition at 10 µM.
reported endpoint: inhibition at 10 µM (%)

1) CNC(=O)[C@@]12C[C@@H]1[C@@H](n1cnc3c(NCc4cccc(Cl)c4)nc(C#Cc4ccc(F)cc4)nc31)[C@H](O)[C@@H]2O | 0
2) CNC(=O)[C@@]12C[C@@H]1[C@@H](n1cnc3c(NC)nc(C#Cc4ccc(F)c(F)c4)nc31)[C@H](O)[C@@H]2O | 0
3) O[C@@H]1[C@H](O)[C@@H]2C[C@@H]2[C@H]1n1cnc2c(NCc3cccc(Cl)c3)nc(C#Cc3ccc(F)c(F)c3)nc21 | 3

###

- measurement target: UniProt Q9Y5N1
- Sequence (Q9Y5N1 whole entry): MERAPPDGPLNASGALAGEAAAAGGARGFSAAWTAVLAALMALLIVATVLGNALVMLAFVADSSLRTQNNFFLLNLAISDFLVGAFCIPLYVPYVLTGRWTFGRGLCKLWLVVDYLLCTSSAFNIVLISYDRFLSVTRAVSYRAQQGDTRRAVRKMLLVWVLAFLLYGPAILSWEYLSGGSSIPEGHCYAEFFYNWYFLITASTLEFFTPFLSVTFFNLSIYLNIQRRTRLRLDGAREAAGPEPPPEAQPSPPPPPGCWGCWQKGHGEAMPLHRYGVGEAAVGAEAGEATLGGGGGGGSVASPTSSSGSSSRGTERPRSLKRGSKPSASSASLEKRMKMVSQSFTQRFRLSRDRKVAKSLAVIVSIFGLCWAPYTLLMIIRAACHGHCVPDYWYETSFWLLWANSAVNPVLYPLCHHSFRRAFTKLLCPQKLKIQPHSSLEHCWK
- assay name: PDSP radioligand binding, H3
- cond: read-out: % inhibition at 10 µM; single concentration 10 µM
reported endpoint: inhibition at 10 µM (%)

1. O[C@@H]1[C@H](O)[C@@H]2C[C@@H]2[C@H]1n1cnc2c(NC(C3CC3)C3CC3)nc(Cl)nc21 [Compound 10] | 8
2. CNC(=O)[C@@]12C[C@@H]1[C@@H](n1cnc3c(NCc4cccc(Cl)c4)nc(Cl)nc31)[C@H](O)[C@@H]2O [Compound 4] | 0
3. CNC(=O)[C@@]12C[C@@H]1[C@@H](n1cnc3c(NC)nc(C#Cc4ccc(F)c(F)c4)nc31)[C@H](O)[C@@H]2O [Compound 5] | 0
4. Clc1cccc(CNc2nc(Cl)nc3[nH]cnc23)c1 [Compound 9] | 3
5. O[C@@H]1[C@H](O)[C@@H]2C[C@@H]2[C@H]1n1cnc2c(NCc3cccc(Cl)c3)nc(C#Cc3ccc(F)c(F)c3)nc21 [Compound 6] | 0
6. CNC(=O)[C@@]12C[C@@H]1[C@@H](n1cnc3c(NCc4cccc(Cl)c4)nc(C#Cc4ccccc4Cl)nc31)[C@H](O)[C@@H]2O [Compound 3] | 0

Provenance of the data: paper PMC4032265
